Tested on: Klebsiella pneumoniae
test_method_notes: Antibacterial activity against Klebsiella pneumoniae ATCC 10031
Type: functional
observable: MIC

# annotated cases, reported MIC shown
What does the data say about its MIC? Entry: CC(=O)c1c(OCCCN(CCCN(C)C)CCCN(C)C)c2c(c3c1OC(C)(CCC=C(C)C)C=C3)OC(C)(CCC=C(C)C)C=C2 (stereo not drawn)
8 µg/mL

What does the data say about its MIC? Entry: CCN(CC)CCCNCCCOc1ccc(/C=C/C(=O)c2ccc3c(c2OC)C=CC(C)(CCC=C(C)C)O3)cc1 (stereo not drawn)
4 µg/mL

Next:
What does the data say about its MIC? Entry: CC(=O)c1ccc2c(c1OCCCNCCCN1CCN(C)CC1)C=CC(C)(CCC=C(C)C)O2 (stereo not drawn)
16 µg/mL

What does the data say about its MIC? Entry: CC(=O)c1c(OCCCN2CCSCC2)c2c(c3c1OC(C)(CCC=C(C)C)C=C3)OC(C)(CCC=C(C)C)C=C2 (stereo not drawn)
> 128 µg/mL

What does the data say about its MIC? Entry: CC(=O)c1c(OCCCN2CCOCC2)c2c(c3c1OC(C)(CCC=C(C)C)C=C3)OC(C)(CCC=C(C)C)C=C2 (stereo not drawn)
> 128 µg/mL

What does the data say about its MIC? Entry: CC(=O)c1c(OCCCNCCCN2CCOCC2)c2c(c3c1OC(C)(CCC=C(C)C)C=C3)OC(C)(CCC=C(C)C)C=C2 (stereo not drawn)
128 µg/mL

What does the data say about its MIC? Entry: CC(=O)c1ccc2c(c1OCC(=O)N(CCCN)CCCN)C=CC(C)(CCC=C(C)C)O2.Cl.Cl (stereo not drawn)
> 128 µg/mL

What does the data say about its MIC? Entry: CCN(CC)CCCNCCCOc1c(C(C)=O)ccc2c1C=CC(C)(CCC=C(C)C)O2 (stereo not drawn)
8 µg/mL

----------
test_method_notes: Hemolytic activity in sheep RBC
Type: toxicity, cell-based, Ovis aries, Erythrocyte
condition_parameters: sheep red blood cells (erythrocytes)
The molecules listed here are annotated with their HC50.
The figure you give is taken to be in µg/mL; do not add the unit.

# annotated cases, reported HC50 shown
What does the data say about its HC50? Entry: CC(=O)c1c(OCCCNCCN(C)C)c2c(c3c1OC(C)(CCC=C(C)C)C=C3)OC(C)(CCC=C(C)C)C=C2 (centres undefined)
45.2

What does the data say about its HC50? Entry: CC(=O)c1ccc2c(c1OCC(=O)N(CCCN)CCCN)C=CC(C)(CCC=C(C)C)O2.Cl.Cl (centres undefined)
1670

What does the data say about its HC50? Entry: CCN(CC)CCCNCCCOc1c(C(C)=O)ccc2c1C=CC(C)(CCC=C(C)C)O2 (centres undefined)
140

Next:
What does the data say about its HC50? Entry: CNCCCOc1c(C(C)=O)ccc2c1C=CC(C)(CCC=C(C)C)O2 (centres undefined)
90.1

What does the data say about its HC50? Entry: CC(=O)c1ccc2c(c1OCCCN(C)CCCN(C)C)C=CC(C)(CCC=C(C)C)O2 (centres undefined)
160

What does the data say about its HC50? Entry: CC(=O)c1ccc2c(c1OCC(=O)NCCCN1CCOCC1)C=CC(C)(CCC=C(C)C)O2 (centres undefined)
261

What does the data say about its HC50? Entry: CC(=O)c1ccc2c(c1OCC(=O)NCCCN1CCN(C)CC1)C=CC(C)(CCC=C(C)C)O2 (centres undefined)
220

What does the data say about its HC50? Entry: CCN(CC)CCCNCCCOc1ccc(/C=C/C(=O)c2ccc3c(c2OC)C=CC(C)(CCC=C(C)C)O3)cc1 (centres undefined)
270

----------
test_method_notes: Selectivity index, ratio of HC50 for hemolytic activity in sheep RBC to MIC for antibacterial activity against methicillin-resistant Staphylococcus aureus ATCC 43300
Format: toxicity
condition_parameters: sheep red blood cells (erythrocytes), read-out: Selectivity Index
observable: selectivity ratio
Give a plain numeric answer without units written out.

# annotated cases, reported selectivity ratio shown
What does the data say about its selectivity ratio? Entry: CC(=O)c1ccc2c(c1OCCCNCCCN1CCN(C)CC1)C=CC(C)(CCC=C(C)C)O2 (centres undefined)
10.5

What does the data say about its selectivity ratio? Entry: CCNCCCOc1ccc(/C=C/C(=O)c2ccc3c(c2OC)C=CC(C)(CCC=C(C)C)O3)cc1 (centres undefined)
7.5

// moving on: another record for selectivity ratio
What does the data say about its selectivity ratio? Entry: CCN(CC)CCCNCCCOc1c(C(C)=O)ccc2c1C=CC(C)(CCC=C(C)C)O2 (centres undefined)
17.5

----------
The molecules listed here are annotated with their log10(MIC).
Test system: Enterococcus faecalis
test_method_notes: Antibacterial activity against vancomycin-susceptible Enterococcus faecalis ATCC 29212
Assay type: functional
# values: log10(MIC), units µg/mL

Notebook entry, Enterococcus faecalis assay: log10(MIC) of CC(=O)c1ccc2c(c1OCCCN(CCCN(C)C)CCCN(C)C)C=CC(C)(CCC=C(C)C)O2 (centres undefined) = ?
1.81

Notebook entry, Enterococcus faecalis assay: log10(MIC) of CCCCN(CCCC)CCCNCCCOc1c(C(C)=O)ccc2c1C=CC(C)(CCC=C(C)C)O2 (centres undefined) = ?
0.60

Notebook entry, Enterococcus faecalis assay: log10(MIC) of CC(=O)c1ccc2c(c1OCC(=O)NCCN(C)C)C=CC(C)(CCC=C(C)C)O2 (centres undefined) = ?
1.81

Notebook entry, Enterococcus faecalis assay: log10(MIC) of CC(=O)c1ccc2c(c1OCC(=O)NCCCN1CCCC1)C=CC(C)(CCC=C(C)C)O2 (centres undefined) = ?
1.81

Next:
Notebook entry, Enterococcus faecalis assay: log10(MIC) of CCCCN(CCCC)CCCNCCCOc1c2c(c3c(c1C(C)=O)OC(C)(CCC=C(C)C)C=C3)OC(C)(CCC=C(C)C)C=C2 (centres undefined) = ?
0.00

Notebook entry, Enterococcus faecalis assay: log10(MIC) of CC(=O)c1ccc2c(c1OCCCNCCCN1CCN(C)CC1)C=CC(C)(CCC=C(C)C)O2 (centres undefined) = ?
1.20

Notebook entry, Enterococcus faecalis assay: log10(MIC) of CCN(CC)CCCNCCCOc1ccc(/C=C/C(=O)c2ccc3c(c2OC)C=CC(C)(CCC=C(C)C)O3)cc1 (centres undefined) = ?
0.30

Notebook entry, Enterococcus faecalis assay: log10(MIC) of CCCCN(CCCC)CCCNC(=O)COc1c(C(C)=O)ccc2c1C=CC(C)(CCC=C(C)C)O2 (centres undefined) = ?
1.51

Notebook entry, Enterococcus faecalis assay: log10(MIC) of COc1c(C(=O)/C=C/c2ccc(OCCCN(C)CCCN(C)C)cc2)ccc2c1C=CC(C)(CCC=C(C)C)O2 (centres undefined) = ?
0.30

----------
Test system: Enterococcus faecalis
test_method_notes: Antibacterial activity against vancomycin-susceptible Enterococcus faecalis ATCC 29212
Assay type: functional
The molecules listed here are annotated with their MIC.
The figure you give is taken to be in µg/mL; do not add the unit.

# annotated cases, reported MIC shown
What does the data say about its MIC? Entry: CC(=O)c1ccc2c(c1OCCCN(C)CCCN(C)C)C=CC(C)(CCC=C(C)C)O2 (stereo not given)
16

What does the data say about its MIC? Entry: CC(=O)c1c(OCCCNCCCN2CCOCC2)c2c(c3c1OC(C)(CCC=C(C)C)C=C3)OC(C)(CCC=C(C)C)C=C2 (stereo not given)
8

What does the data say about its MIC? Entry: CC(=O)c1c(OCCCNCCCN2CCCC2)c2c(c3c1OC(C)(CCC=C(C)C)C=C3)OC(C)(CCC=C(C)C)C=C2 (stereo not given)
4

// moving on: another record for MIC
What does the data say about its MIC? Entry: CNCCCOc1c(C(C)=O)ccc2c1C=CC(C)(CCC=C(C)C)O2 (stereo not given)
4

----------
test_method_notes: Selectivity index, ratio of HC50 for hemolytic activity in sheep RBC to MIC for antibacterial activity against methicillin-resistant Staphylococcus aureus ATCC 43300
Type: toxicity
condition_parameters: sheep red blood cells (erythrocytes), read-out: Selectivity Index
So basically: selectivity ratio at 20 or higher? That is 1. Lower than 20? That is -1.

Please tell me: is the molecule CCN(CC)CCCNCCCOc1ccc(/C=C/C(=O)c2ccc3c(c2OC)C=CC(C)(CCC=C(C)C)O3)cc1 (stereo not drawn) at or over 20 in terms of selectivity ratio?
1

Next:
Please tell me: is the molecule CCCCN(CCCC)CCCNCCCOc1c(C(C)=O)ccc2c1C=CC(C)(CCC=C(C)C)O2 (stereo not drawn) at or over 20 in terms of selectivity ratio?
1

Please tell me: is the molecule CC(=O)c1ccc2c(c1OCC(=O)NCCCN1CCOCC1)C=CC(C)(CCC=C(C)C)O2 (stereo not drawn) at or over 20 in terms of selectivity ratio?
-1

Please tell me: is the molecule CCCCN(CCCC)CCCNC(=O)COc1c(C(C)=O)ccc2c1C=CC(C)(CCC=C(C)C)O2 (stereo not drawn) at or over 20 in terms of selectivity ratio?
1

Please tell me: is the molecule CC(=O)c1c(OCCCN2CCOCC2)c2c(c3c1OC(C)(CCC=C(C)C)C=C3)OC(C)(CCC=C(C)C)C=C2 (stereo not drawn) at or over 20 in terms of selectivity ratio?
-1

Please tell me: is the molecule CC(=O)c1c(OCCCN(C)C)c2c(c3c1OC(C)(CCC=C(C)C)C=C3)OC(C)(CCC=C(C)C)C=C2 (stereo not drawn) at or over 20 in terms of selectivity ratio?
-1

Please tell me: is the molecule CC(=O)c1ccc2c(c1OCCCN(C)CCCN(C)C)C=CC(C)(CCC=C(C)C)O2 (stereo not drawn) at or over 20 in terms of selectivity ratio?
-1

Please tell me: is the molecule CCCCN(CCCC)CCCNCCCOc1ccc(/C=C/C(=O)c2ccc3c(c2OC)C=CC(C)(CCC=C(C)C)O3)cc1 (stereo not drawn) at or over 20 in terms of selectivity ratio?
-1
